# studyTarget: CFTR (Homo sapiens, UniProt P13569)
# Sequence (P13569 with tags, fused parts or gaps DEL508-508): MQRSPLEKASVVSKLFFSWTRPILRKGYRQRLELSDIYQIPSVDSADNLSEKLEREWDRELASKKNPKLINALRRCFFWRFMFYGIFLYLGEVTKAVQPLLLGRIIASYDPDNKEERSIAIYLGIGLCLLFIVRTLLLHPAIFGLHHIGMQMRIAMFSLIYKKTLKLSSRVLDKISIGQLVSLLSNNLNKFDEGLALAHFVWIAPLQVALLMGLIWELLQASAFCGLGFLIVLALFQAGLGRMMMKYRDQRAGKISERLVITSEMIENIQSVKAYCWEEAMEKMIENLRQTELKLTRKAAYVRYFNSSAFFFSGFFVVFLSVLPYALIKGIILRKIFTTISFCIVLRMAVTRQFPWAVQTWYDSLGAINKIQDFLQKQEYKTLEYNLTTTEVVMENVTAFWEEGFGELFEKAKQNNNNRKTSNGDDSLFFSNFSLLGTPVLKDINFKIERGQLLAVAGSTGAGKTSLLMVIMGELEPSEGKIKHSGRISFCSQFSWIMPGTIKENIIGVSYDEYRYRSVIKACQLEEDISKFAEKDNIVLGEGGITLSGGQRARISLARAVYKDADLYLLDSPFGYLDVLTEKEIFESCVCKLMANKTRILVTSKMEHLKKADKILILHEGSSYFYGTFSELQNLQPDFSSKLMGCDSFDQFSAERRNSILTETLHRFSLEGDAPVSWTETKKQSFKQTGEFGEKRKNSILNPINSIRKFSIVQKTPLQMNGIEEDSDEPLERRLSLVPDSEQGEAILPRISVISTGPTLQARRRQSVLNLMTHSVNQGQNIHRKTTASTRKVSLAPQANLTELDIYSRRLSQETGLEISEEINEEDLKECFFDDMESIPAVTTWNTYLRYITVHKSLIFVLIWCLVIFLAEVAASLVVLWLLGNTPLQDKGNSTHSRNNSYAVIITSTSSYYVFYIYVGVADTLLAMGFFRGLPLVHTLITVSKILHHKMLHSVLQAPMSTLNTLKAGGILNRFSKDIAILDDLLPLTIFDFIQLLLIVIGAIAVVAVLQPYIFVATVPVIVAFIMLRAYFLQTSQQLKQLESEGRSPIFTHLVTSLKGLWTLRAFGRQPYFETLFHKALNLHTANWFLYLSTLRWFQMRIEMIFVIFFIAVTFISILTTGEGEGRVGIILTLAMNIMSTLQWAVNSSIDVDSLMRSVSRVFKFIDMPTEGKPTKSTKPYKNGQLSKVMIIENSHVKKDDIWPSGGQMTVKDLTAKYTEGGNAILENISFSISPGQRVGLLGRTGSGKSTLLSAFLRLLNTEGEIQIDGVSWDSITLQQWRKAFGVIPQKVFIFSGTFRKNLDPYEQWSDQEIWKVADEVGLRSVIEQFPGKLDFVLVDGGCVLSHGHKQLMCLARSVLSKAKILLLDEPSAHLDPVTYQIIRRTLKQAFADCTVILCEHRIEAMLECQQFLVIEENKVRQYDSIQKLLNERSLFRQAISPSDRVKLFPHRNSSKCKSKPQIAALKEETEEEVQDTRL
# experimentNotes: Membrane Potential Dye, Enteroid Assay A
# Assay type: cell-based
# conditionNotes: Table 9; read-out: Ent. A EC50
# Procedure: Base medium (ADF+++) consisted of Advanced DMEM/Ham's F12, 2 mM Glutamax, 10 mM HEPES, […] penicillin/streptomycin. Bath 1 Buffer consisted of 1 mM MgCl2, 160 mM NaCl, 4.5 mM KCl, 10 mM HEPES, 10 mM Glucose, 2 mM CaCl2). […] Briefly, cells were washed 5 times in Bath 1 Buffer. […] Chloride transport was initiated by addition of Chloride Free Dye Stimulation Solution and the fluorescence signal was read for 15 min. […]
endpointName: EC50

Consider the worked cases shown below.
Cc1cccc(C)c1-c1cc2nc(n1)NS(=O)(=O)c1cccc(c1)C(=O)NC[C@@H](c1ccc(C(C)(C)C(F)(F)F)cc1)O2 [Compound 256] : < 1 µM
Cc1cccc(C)c1-c1cc2nc(n1)NS(=O)(=O)c1cccc(c1)C(=O)N[C@@H]1CCN(Cc3ccc(C(C)(C)C)cc3)C[C@@H]1O2 (single isomer, unassigned) : < 1 µM
Cc1cccc(C)c1-c1cc2nc(n1)NS(=O)(=O)c1cccc(c1)C(=O)N[C@@H]1CN(c3ccc(C(F)(F)F)cn3)C[C@H]1O2 : < 1 µM
CC(C)C[C@@H]1COc2cc(C3CCCCC3(C)C)nc(n2)NS(=O)(=O)c2cccc(c2)C(=O)N1 (stereo partly drawn) : 1 to 3 µM
Cc1cccc(C)c1-c1cc2nc(n1)NS(=O)(=O)c1cccc(c1)C(=O)N[C@@H]1CCN(C(=O)CC(C)(C)C)C[C@@H]1O2 (stereo in doubt) : 3 to 30 µM

Looking up "Cc1cccc(C)c1-c1cc2nc(n1)NS(=O)(=O)c1cccc(c1)C(=O)N[C@@H](C)[C@@H](c1ccc(C(C)(C)C)cc1)O2" , I see its EC50 listed as < 1 µM
